Measured target: HDAC6 (Homo sapiens)
Construct: Full length human recombinant HDAC6 protein
Sequence (Q9UBN7 whole entry): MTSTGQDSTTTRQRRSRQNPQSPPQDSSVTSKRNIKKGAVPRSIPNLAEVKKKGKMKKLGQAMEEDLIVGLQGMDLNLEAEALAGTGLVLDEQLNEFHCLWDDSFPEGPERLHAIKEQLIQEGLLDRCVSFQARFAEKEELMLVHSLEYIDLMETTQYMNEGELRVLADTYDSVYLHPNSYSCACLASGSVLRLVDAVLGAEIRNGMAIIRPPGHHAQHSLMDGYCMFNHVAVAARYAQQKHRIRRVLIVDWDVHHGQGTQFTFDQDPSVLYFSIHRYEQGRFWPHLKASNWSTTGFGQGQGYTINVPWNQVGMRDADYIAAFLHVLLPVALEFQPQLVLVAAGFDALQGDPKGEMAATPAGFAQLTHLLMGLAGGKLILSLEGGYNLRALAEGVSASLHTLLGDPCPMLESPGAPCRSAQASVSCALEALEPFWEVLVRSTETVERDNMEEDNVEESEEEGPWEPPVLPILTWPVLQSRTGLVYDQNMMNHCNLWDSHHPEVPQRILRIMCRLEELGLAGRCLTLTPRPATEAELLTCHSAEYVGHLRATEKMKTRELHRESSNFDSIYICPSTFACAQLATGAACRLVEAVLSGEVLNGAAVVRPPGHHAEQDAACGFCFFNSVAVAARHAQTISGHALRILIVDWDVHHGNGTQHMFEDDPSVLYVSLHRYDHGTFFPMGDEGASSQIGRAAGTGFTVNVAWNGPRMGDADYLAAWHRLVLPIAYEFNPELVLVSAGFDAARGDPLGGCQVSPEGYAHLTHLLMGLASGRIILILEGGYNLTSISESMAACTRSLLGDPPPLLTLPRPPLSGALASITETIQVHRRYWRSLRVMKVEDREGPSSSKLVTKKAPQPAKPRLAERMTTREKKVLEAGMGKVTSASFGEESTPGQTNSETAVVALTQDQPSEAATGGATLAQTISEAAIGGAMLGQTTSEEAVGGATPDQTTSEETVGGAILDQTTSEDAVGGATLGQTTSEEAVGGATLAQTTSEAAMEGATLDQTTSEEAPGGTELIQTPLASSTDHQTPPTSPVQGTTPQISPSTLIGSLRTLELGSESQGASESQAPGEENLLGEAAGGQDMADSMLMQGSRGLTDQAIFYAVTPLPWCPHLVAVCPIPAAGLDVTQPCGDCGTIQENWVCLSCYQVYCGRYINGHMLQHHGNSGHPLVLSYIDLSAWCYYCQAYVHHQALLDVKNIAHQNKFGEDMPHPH
Run description: In vitro histone deacetylase assay: enzymatic HDAC6 assay by electrophoretic mobility shift
Condition context: full length human recombinant HDAC6 1 nM, 2 μM peptide substrate RHKK(Ac)-NH2, 25° C., 12 concentrations; read-out: Inhibitory Concentration (IC50) against HDAC6, Activity Range
pIC50: −log10 of the molar value.
Reported property: pIC50

Please review the following examples before continuing.
INSERT INTO assay_data (molecule, measured_target, result) VALUES
  ('O=C(NO)c1ccc2c(c1)OC[C@H](c1ccccc1)N(C(=O)c1ccc(F)cc1)C2', 'HDAC6 (Homo sapiens)', '≥ 7.00'),
  ('O=C(NO)c1ccc2c(c1)OC[C@H](c1ccccc1)N(C(=O)C1CCCCC1)C2', 'HDAC6 (Homo sapiens)', '≥ 7.00'),
  ('O=C(NO)c1ccc2c(c1)OC[C@@H](c1ccccc1C(F)(F)F)N(C(=O)C1CCOCC1)C2 (single isomer, unassigned)', 'HDAC6 (Homo sapiens)', '< 6.30');

Let us move to another entry and its pIC50.
I'm curious: which pIC50 was measured for O=C(NO)c1ccc2c(c1)OC[C@H](c1ccccc1)N(C(=O)[C@H]1CCCOC1)C2 (single isomer, unassigned) tested on HDAC6 (Homo sapiens)? ≥ 7.00
